# reported buried surface area; entries follow
- Tested On: androgen receptor ligand binding domain (AR LBD) bound with DHT (chimp construct; LBD sequence stated identical to human)
- Sequence (P10275 whole entry, the tested form may be a part): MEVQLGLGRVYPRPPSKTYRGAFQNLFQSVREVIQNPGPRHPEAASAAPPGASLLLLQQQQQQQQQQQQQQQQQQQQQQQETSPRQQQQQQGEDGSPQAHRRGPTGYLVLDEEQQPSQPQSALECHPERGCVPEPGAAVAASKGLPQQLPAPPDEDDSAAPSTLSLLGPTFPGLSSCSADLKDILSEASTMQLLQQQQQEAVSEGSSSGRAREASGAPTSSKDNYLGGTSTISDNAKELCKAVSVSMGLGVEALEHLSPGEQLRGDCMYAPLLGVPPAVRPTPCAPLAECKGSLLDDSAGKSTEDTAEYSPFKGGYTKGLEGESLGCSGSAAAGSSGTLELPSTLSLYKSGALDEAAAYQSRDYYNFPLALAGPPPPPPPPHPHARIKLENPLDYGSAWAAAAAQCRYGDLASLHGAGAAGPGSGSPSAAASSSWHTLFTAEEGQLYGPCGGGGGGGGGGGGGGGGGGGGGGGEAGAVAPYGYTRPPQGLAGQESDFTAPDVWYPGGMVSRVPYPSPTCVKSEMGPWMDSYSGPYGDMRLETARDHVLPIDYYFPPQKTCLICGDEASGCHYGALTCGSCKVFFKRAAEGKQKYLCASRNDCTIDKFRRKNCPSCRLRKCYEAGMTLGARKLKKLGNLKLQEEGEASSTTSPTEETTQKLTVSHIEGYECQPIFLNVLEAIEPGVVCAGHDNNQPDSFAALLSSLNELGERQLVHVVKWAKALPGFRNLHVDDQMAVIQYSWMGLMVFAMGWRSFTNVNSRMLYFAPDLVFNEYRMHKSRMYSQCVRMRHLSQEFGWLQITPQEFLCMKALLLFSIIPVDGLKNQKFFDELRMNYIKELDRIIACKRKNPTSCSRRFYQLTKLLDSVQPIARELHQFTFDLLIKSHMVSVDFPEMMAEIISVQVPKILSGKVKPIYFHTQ
- Method Description: X-ray cocrystal structure; surface area buried from both molecules on binding
Write down the numeric answer in A^2 and omit the unit.

>>> print(df.to_string())
                                     binder        property_name  test_value
0  SSRFESLFAGEKESR [coactivator-related peptide CRP-3]  buried surface area        1020

// switching to the query binder
Consider the binder shown here: SSRGLLWDLLTKDSR [coactivator-related peptide CRP-1] What is its recorded buried surface area?
987
